- subject.of.test: 14-3-3β/CFTRpS753pS768 complex (Homo sapiens, UniProt P13569+P31946)
- Construct: His6 (cleaved yes); made in house; peptide synthetic
- Sequence (P31946 whole entry): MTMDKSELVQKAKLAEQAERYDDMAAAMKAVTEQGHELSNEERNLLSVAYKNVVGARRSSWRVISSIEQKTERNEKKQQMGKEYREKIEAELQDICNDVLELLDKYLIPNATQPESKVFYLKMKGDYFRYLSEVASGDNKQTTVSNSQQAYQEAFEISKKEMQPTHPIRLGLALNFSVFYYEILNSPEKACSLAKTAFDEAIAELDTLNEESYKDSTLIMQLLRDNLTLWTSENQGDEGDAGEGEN
- Sequence (P13569 747-774 limits assumed): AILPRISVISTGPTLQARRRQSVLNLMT
- assay.procedure: Dose-response fluorescence polarization (FP) assay, compound titration
- Type: binding
- condition.label: 14-3-3β 10 μM; labeled CFTRpS753pS768 100 nM; read-out: EC50
measurement.kind: EC50 (µM)

response.value for N=C(N)NCCCC1NC(=O)C(CCC(N)=O)NC(=O)C(CCCNC(=N)N)NC(=O)C2CCCN2Cc2ccccc2Sc2ccccc2CNC1=O (stereo not drawn) [CY007502] (field: EC50) = 275

1: N=C(N)NCCCC1NC(=O)C(CCCCN)NCc2ccccc2Sc2ccccc2CNC(=O)C(Cc2ccc(O)cc2)NC1=O (stereo not drawn) [CY001951]
2: CC1NC(=O)C(CCCNC(=N)N)NC(=O)C2CCCN2Cc2cccc(c2)-c2ccccc2CNC(=O)C(CCCNC(=N)N)NC1=O (stereo not drawn) [CY007476]
Could you tell me which of these two has the smaller EC50 figure? First: 1 Second: 2 Your choice should be expressed through its label.
2

----------
- subject.of.test: 14-3-3β/CFTRpS753pS768 complex (Homo sapiens, UniProt P13569+P31946)
- Construct: His6 (cleaved yes); made in house; peptide synthetic
- assay.procedure: Dose-response fluorescence polarization (FP) assay, compound titration
- Assay type: binding
- condition.label: 14-3-3β 10 μM; labeled CFTRpS753pS768 100 nM; read-out: EC50
pEC50: −log10 of the molar value.
measurement.kind: pEC50

The cases that follow already have their pEC50 on record.
response.value for C=CC(C)(C)OC[C@H]1O[C@H](O[C@@H]2C3=C([C@H](C)COC(C)=O)C[C@H](O)[C@]3(C)/C=C3/[C@@H](COC)CC[C@H]3[C@@H](C)[C@H]2O)[C@H](O)[C@@H](OC(C)=O)[C@@H]1O [FC-A, fusicoccin A, reference compound] (field: pEC50) = 4.16

response.value for N=C(N)NCCCC1NC(=O)C(CCC(N)=O)NC(=O)C(CCCNC(=N)N)NC(=O)C2CCCN2Cc2cccc(c2)-c2ccccc2CNC1=O (centres unmarked) [CY007458] (field: pEC50) = 3.82

response.value for N=C(N)NCCCC1NC(=O)C(CCC(N)=O)NC(=O)C(CCCNC(=N)N)NC(=O)C2CCCN2Cc2cccc(c2)-c2ccccc2CNC1=O (centres unmarked) [CY007455] (field: pEC50) = 3.77

1: CN1CC(=O)NC(CCCNC(=N)N)C(=O)NC(CCC(N)=O)C(=O)NC(CCCNC(=N)N)C(=O)NCc2ccccc2-c2cccc(c2)C1 (centres unmarked)
2: N=C(N)NCCCC1NC(=O)C(CCC(N)=O)NC(=O)C(CCCNC(=N)N)NC(=O)C2Cc3ccccc3CN2Cc2cccc(c2)-c2ccccc2CNC1=O (centres unmarked)
// pick larger pEC50 from pair: 1 vs 2 Your choice should be expressed through its label.
1

----------
- subject.of.test: 14-3-3β/CFTRpS753pS768 complex (Homo sapiens, UniProt P13569+P31946)
- Construct: His6 (cleaved yes); made in house; peptide synthetic
- assay.procedure: Dose-response fluorescence polarization (FP) assay, compound titration
- Type: binding
- condition.label: With 14-3-3; compound 3.05176e-8 M
measurement.kind: FP signal

response.value for CC1NC(=O)C(CCCNC(=N)N)NC(=O)C2CCCN2Cc2cccc(c2)-c2ccccc2CNC(=O)C(CCCNC(=N)N)NC1=O (stereo not drawn) [CY007476] (field: FP signal) = 6

1: N=C(N)NCCCC1NCc2ccccc2Sc2ccccc2CNC(=O)C(Cc2ccc(O)cc2)NC(=O)C(CCCN)NC1=O (stereo not drawn) [CY007424]
2: N=C(N)NCCCC1NC(=O)C(CCCCN)NCc2ccccc2Sc2ccccc2CNC(=O)C(Cc2ccc(O)cc2)NC1=O (stereo not drawn) [CY001951]
Could you tell me which of these two has the smaller FP signal figure? First: 1 Second: 2 Your choice should be expressed through its label.
2
(2: 4, 1: 6)

Entry source: paper PMC9226124
